Values were extracted from patent US20130123460A1.

# PROTOCOL: Plasma stability of GLP-1 peptide complex (remaining rate in rat plasma, HPLC/MS)
# Type: in vitro ADME, SD rats
# MEASUREMENT SETUP: SD; rat plasma, 0.5 μmol/L, 37° C., 48 hours, relative to 0 hour = 100%; read-out: Remaining rate in plasma after 48 hours (%)
Where no end group is shown, it is not given here.
EXPERIMENTAL READOUT: remaining at 48 h, 0.5 μmol/L

stdin: For the substance HSEGTFTSDVSSYLEGQAAKEFIAWLVKGVSDYYKNLINNAKTVEGVKALIDEILAALP-NH2 [Comparative Example 5, [Ser8]-GLP-1(7-35)-GAm(17-46)-NH2, reference compound] , report remaining at 48 h, 0.5 μmol/L.
stdout: 105%

---

I'd be grateful if you could share measured remaining at 48 h, 0.5 μmol/L for these entries.
# PROTOCOL: Plasma stability of GLP-1 peptide complex (remaining rate in rat plasma, HPLC/MS)
# Type: in vitro ADME, SD rats
# MEASUREMENT SETUP: SD, rat, plasma
Where no end group is shown, it is not given here.
Give the quantity in %, number only.

stdin: For the substance HSEGTFTSDVSSYLEGQAAKEFIAWLVKGAKTVEGVKALIDEIL-NH2 [Example 13, [Ser8]-GLP-1(7-35)-GAm(28-42)-NH2] , report remaining at 48 h, 0.5 μmol/L.
stdout: 87

stdin: For the substance HAEGTFTSDVSSYLEGQAAKEFIAWLVKGGVKALIDEILA-NH2 [Example 7, GLP-1(7-35)-GAm(33-43)-NH2] , report remaining at 48 h, 0.5 μmol/L.
stdout: 87

stdin: For the substance HSEGTFTSDVSSYLEGQAAKEFIAWLVKGTVEGVKALIDEIL-NH2 [Example 12, [Ser8]-GLP-1(7-35)-GAm(30-42)-NH2] , report remaining at 48 h, 0.5 μmol/L.
stdout: 116

stdin: For the substance HAEGTFTSDVSSYLEGQAAKEFIAWLVKGGPVKALIDEILAA-NH2 [Example 22, GLP-1(7-35)-Gly-Pro-GAm(34-44)-NH2] , report remaining at 48 h, 0.5 μmol/L.
stdout: 94

stdin: For the substance HSEGTFTSDVSSYLEGQAAKEFIAWLVKGVEGVKALIDEILAA-NH2 [Example 11, [Ser8]-GLP-1(7-35)-GAm(31-44)-NH2] , report remaining at 48 h, 0.5 μmol/L.
stdout: 92

stdin: For the substance HSEGTFTSDVSSYLEGQAAKEFIAWLVKGAKTVEGVKALIDEILAA [Example 18, [Ser8]-GLP-1(7-35)-GAm(28-44)] , report remaining at 48 h, 0.5 μmol/L.
stdout: 88

stdin: For the substance HSEGTFTSDVSSYLEGQAAKEFIAWLVKGINNAKTVEGVKALIDEILAALP-NH2 [Example 16, [Ser8]-GLP-1(7-35)-GAm(25-46)-NH2] , report remaining at 48 h, 0.5 μmol/L.
stdout: 93

stdin: For the substance HSEGTFTSDVSSYLEGQAAKEFIAWLVKGKNLINNAKTVEGVKALIDEILAALP-NH2 [Example 17, [Ser8]-GLP-1(7-35)-GAm(22-46)-NH2] , report remaining at 48 h, 0.5 μmol/L.
stdout: 93

stdin: For the substance HSEGTFTSDVSSYLEGQAAKEFIAWLVKGGVKALIDEILAA [Example 19, [Ser8]-GLP-1(7-35)-GAm(33-44)] , report remaining at 48 h, 0.5 μmol/L.
stdout: 102

stdin: For the substance HSEGTFTSDVSSYLEGQAAKEFIAWLVKGGVKALIDEILAA-NH2 [Example 9, [Ser8]-GLP-1(7-35)-GAm(33-44)-NH2] , report remaining at 48 h, 0.5 μmol/L.
stdout: 93

stdin: For the substance HSEGTFTSDVSSYLEGQAAKEFIAWLVKGKALIDEILAA-NH2 [Example 4, [Ser8]-GLP-1(7-35)-GAm(35-44)-NH2] , report remaining at 48 h, 0.5 μmol/L.
stdout: 117

stdin: For the substance HSEGTFTSDVSSYLEGQAAKEFIAWLVKGAKTVEGVKAL-NH2 [Comparative Example 8, [Ser8]-GLP-1(7-35)-GAm(28-37)-NH2, reference compound] , report remaining at 48 h, 0.5 μmol/L.
stdout: 0

stdin: For the substance HSEGTFTSDVSSYLEGQAAKEFIAWLVKGNAKTVEGVKALIDEILAALP-NH2 [Example 15, [Ser8]-GLP-1(7-35)-GAm(27-46)-NH2] , report remaining at 48 h, 0.5 μmol/L.
stdout: 93

stdin: For the substance HSEGTFTSDVSSYLEEEAAKEFIAWLVKGGPSSGAPPPS-NH2 [Comparative Example 13, reference compound] , report remaining at 48 h, 0.5 μmol/L.
stdout: 12

stdin: For the substance HSEGTFTSDVSSYLEGQAAKEFIAWLVKGAKTVEGVKALIDE-NH2 [Comparative Example 7, [Ser8]-GLP-1(7-35)-GAm(28-40)-NH2, reference compound] , report remaining at 48 h, 0.5 μmol/L.
stdout: 4

stdin: For the substance HSEGTFTSDVSSYLEGQAAKEFIAWLVKGYKNLINNAKTVEGVKALIDEILAALP-NH2 [Comparative Example 6, [Ser8]-GLP-1(7-35)-GAm(21-46)-NH2, reference compound] , report remaining at 48 h, 0.5 μmol/L.
stdout: 84

stdin: For the substance HAEGTFTSDVSSYLEGQAAKEFIAWLVKGGPKALIDEILAA-NH2 [Example 21, GLP-1(7-35)-Gly-Pro-GAm(35-44)-NH2] , report remaining at 48 h, 0.5 μmol/L.
stdout: 53

stdin: For the substance HAEGTFTSDVSSYLEGQAAKEFIAWLVKGGPSGVKALIDEILAA-NH2 [Example 24, GLP-1(7-35)-Gly-Pro-Ser-GAm(33-44)-NH2] , report remaining at 48 h, 0.5 μmol/L.
stdout: 40

---

# PROTOCOL: Plasma stability of GLP-1 peptide complex (remaining rate in rat plasma, HPLC/MS)
# Type: in vitro ADME, SD rats
# MEASUREMENT SETUP: SD, rat, plasma
Where no end group is shown, it is not given here.
I'd be grateful if you could share measured remaining at 8 h, 0.5 μmol/L for these entries.
Give the quantity in %, number only.

stdin: For the substance HSEGTFTSDVSSYLEGQAAKEFIAWLVKGAKTVEGVKALIDE-NH2 [Comparative Example 7, [Ser8]-GLP-1(7-35)-GAm(28-40)-NH2, reference compound] , report remaining at 8 h, 0.5 μmol/L.
stdout: 81

stdin: For the substance HSEGTFTSDVSSYLEGQAAKEFIAWLVKGGVKALIDEILAA [Example 19, [Ser8]-GLP-1(7-35)-GAm(33-44)] , report remaining at 8 h, 0.5 μmol/L.
stdout: 114

stdin: For the substance HSEGTFTSDVSSYLEEEAAKEFIAWLVKGGPSSGAPPPS-NH2 [Comparative Example 13, reference compound] , report remaining at 8 h, 0.5 μmol/L.
stdout: 57

stdin: For the substance HSEGTFTSDVSSYLEGQAAKEFIAWLVKGVEGVKALIDEILAA-NH2 [Example 11, [Ser8]-GLP-1(7-35)-GAm(31-44)-NH2] , report remaining at 8 h, 0.5 μmol/L.
stdout: 99

stdin: For the substance HSEGTFTSDVSSYLEGQAAKEFIAWLVKGGVKALIDEILAA-NH2 [Example 9, [Ser8]-GLP-1(7-35)-GAm(33-44)-NH2] , report remaining at 8 h, 0.5 μmol/L.
stdout: 104

stdin: For the substance HSEGTFTSDVSSYLEGQAAKEFIAWLVKGNAKTVEGVKALIDEILAALP-NH2 [Example 15, [Ser8]-GLP-1(7-35)-GAm(27-46)-NH2] , report remaining at 8 h, 0.5 μmol/L.
stdout: 111

stdin: For the substance HAEGTFTSDVSSYLEGQAAKEFIAWLVKGGPKALIDEILAA-NH2 [Example 21, GLP-1(7-35)-Gly-Pro-GAm(35-44)-NH2] , report remaining at 8 h, 0.5 μmol/L.
stdout: 86

stdin: For the substance HSEGTFTSDVSSYLEGQAAKEFIAWLVKGTVEGVKALIDEIL-NH2 [Example 12, [Ser8]-GLP-1(7-35)-GAm(30-42)-NH2] , report remaining at 8 h, 0.5 μmol/L.
stdout: 105

stdin: For the substance HSEGTFTSDVSSYLEGQAAKEFIAWLVKGINNAKTVEGVKALIDEILAALP-NH2 [Example 16, [Ser8]-GLP-1(7-35)-GAm(25-46)-NH2] , report remaining at 8 h, 0.5 μmol/L.
stdout: 102

stdin: For the substance HAEGTFTSDVSSYLEGQAAKEFIAWLVKGGPVKALIDEILAA-NH2 [Example 22, GLP-1(7-35)-Gly-Pro-GAm(34-44)-NH2] , report remaining at 8 h, 0.5 μmol/L.
stdout: 98

stdin: For the substance HAEGTFTSDVSSYLEGQAAKEFIAWLVKGGPSGVKALIDEILAA-NH2 [Example 24, GLP-1(7-35)-Gly-Pro-Ser-GAm(33-44)-NH2] , report remaining at 8 h, 0.5 μmol/L.
stdout: 90

stdin: For the substance HSEGTFTSDVSSYLEGQAAKEFIAWLVKGKNLINNAKTVEGVKALIDEILAALP-NH2 [Example 17, [Ser8]-GLP-1(7-35)-GAm(22-46)-NH2] , report remaining at 8 h, 0.5 μmol/L.
stdout: 80

stdin: For the substance HSEGTFTSDVSSYLEGQAAKEFIAWLVKGAKTVEGVKALIDEIL-NH2 [Example 13, [Ser8]-GLP-1(7-35)-GAm(28-42)-NH2] , report remaining at 8 h, 0.5 μmol/L.
stdout: 88

stdin: For the substance HAEGTFTSDVSSYLEGQAAKEFIAWLVKGGVKALIDEILA-NH2 [Example 7, GLP-1(7-35)-GAm(33-43)-NH2] , report remaining at 8 h, 0.5 μmol/L.
stdout: 94
